The origin of these recorded values is ChEMBL document CHEMBL1134340.

SYSTEM: Gonadotropin-releasing hormone receptor (Homo sapiens)
Sequence (P30968 whole entry): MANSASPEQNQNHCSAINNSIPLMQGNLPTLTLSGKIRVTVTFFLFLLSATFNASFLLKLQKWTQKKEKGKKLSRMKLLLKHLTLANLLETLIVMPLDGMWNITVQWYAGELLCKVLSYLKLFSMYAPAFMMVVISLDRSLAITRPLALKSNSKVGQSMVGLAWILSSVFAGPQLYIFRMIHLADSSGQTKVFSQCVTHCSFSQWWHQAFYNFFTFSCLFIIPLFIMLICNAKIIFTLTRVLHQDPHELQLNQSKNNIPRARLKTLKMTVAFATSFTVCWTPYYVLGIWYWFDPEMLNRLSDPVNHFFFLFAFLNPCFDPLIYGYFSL
EXPERIMENT_NOTES: Antagonism of human GnHR receptor, determined in a reporter gene assay in HEK293 cells
Type: functional, cell-based
pIC50: −log10 of the molar value.
Each record here notes measured pIC50.

# CHEMICAL_STRUCTURE, pIC50
records = [
    ("CC(=O)N[C@H](Cc1ccc2ccccc2c1)C(=O)N[C@H](Cc1ccc(Cl)cc1)C(=O)N[C@H](Cc1cccnc1)C(=O)N[C@@H](CO)C(=O)N[C@@H](Cc1ccc(NC(=O)[C@@H]2CC(=O)NC(=O)N2)cc1)C(=O)N[C@H](Cc1ccc(CNC(N)=O)cc1)C(=O)N[C@@H](CC(C)C)C(=O)N[C@@H](CCCCNC(C)C)C(=O)N1CCC[C@H]1C(=O)N[C@H](C)CO", 8.11),
    ("CC(=O)NCc1ccc(C[C@@H](NC(=O)[C@H](Cc2ccc(NC(=O)[C@@H]3CC(=O)NC(=O)N3)cc2)NC(=O)[C@H](CO)NC(=O)[C@@H](Cc2cccnc2)NC(=O)[C@@H](Cc2ccc(Cl)cc2)NC(=O)[C@@H](Cc2ccc3ccccc3c2)NC(C)=O)C(=O)N[C@@H](CC(C)C)C(=O)N[C@@H](CCCCNC(C)C)C(=O)N2CCC[C@H]2C(=O)N[C@H](C)C(N)=O)cc1", 8.02),
    ("CC(=O)N[C@H](Cc1ccc2ccccc2c1)C(=O)N[C@H](Cc1ccc(Cl)cc1)C(=O)N[C@H](Cc1cccnc1)C(=O)N[C@@H](CO)C(=O)N[C@@H](Cc1ccc(NC(=O)[C@@H]2CC(=O)NC(=O)N2)cc1)C(=O)N[C@H](Cc1ccc(NC(=O)[C@@H]2CC(=O)NC(=O)N2)cc1)C(=O)N[C@@H](CC(C)C)C(=O)N[C@@H](CCCCNC(C)C)C(=O)N1CCC[C@H]1C(=O)N[C@H](C)C(N)=O", 7.97),
]

---

Species on record: Rattus norvegicus
EXPERIMENT_NOTES: Compound was tested for histamine release at a concentration of 300 ug/mL
Type: functional

# COMPOUND, HR, %
measured = [
    ("CC(=O)Nc1ccc(C[C@H](NC(=O)[C@H](CO)NC(=O)[C@@H](Cc2cccnc2)NC(=O)[C@@H](Cc2ccc(Cl)cc2)NC(=O)[C@@H](Cc2ccc3ccccc3c2)NC(C)=O)C(=O)N[C@H](Cc2ccc(NC(C)=O)cc2)C(=O)N[C@@H](CC(C)C)C(=O)N[C@@H](CCCCNC(C)C)C(=O)N2CCC[C@H]2C(=O)N[C@H](C)C(N)=O)cc1 [ACYLINE]", 87),
    ("CC(=O)N[C@H](Cc1ccc2ccccc2c1)C(=O)N[C@H](Cc1ccc(Cl)cc1)C(=O)N[C@H](Cc1cccnc1)C(=O)N[C@@H](CO)C(=O)N[C@@H](Cc1ccc(NC(=O)[C@@H]2CC(=O)NC(=O)N2)cc1)C(=O)N[C@H](Cc1cccnc1)C(=O)N[C@@H](CC(C)C)C(=O)N[C@@H](CCCCNC(C)C)C(=O)N1CCC[C@H]1C(=O)N[C@H](C)C(N)=O", 62),
    ("CC(=O)N[C@H](Cc1ccc2ccccc2c1)C(=O)N[C@H](Cc1ccc(Cl)cc1)C(=O)N[C@H](Cc1cccnc1)C(=O)N[C@@H](CO)C(=O)N[C@@H](Cc1ccc(NC(=O)[C@H]2CC(=O)NC(=O)N2)cc1)C(=O)N[C@H](Cc1ccc(NC(N)=O)cc1)C(=O)N[C@@H](CC(C)C)C(=O)N[C@@H](CCCCNC(C)C)C(=O)N1CCC[C@H]1C(=O)N[C@H](C)C(N)=O", 68),
]
